Data provenance: patent US5310938A

system: Dermacentor variabilis; test: Filter paper contact test against larval stages of the Dogtick; type: in vivo; conditions: 10.0 μg/cm^2, 48 hour
Each record here notes measured mortality at 10 µg/cm2, 10 µg/cm2.

{"mol": "O=[N+]([O-])c1c(-c2ccc(Cl)cc2)[nH]c(Cl)c1Cl", "study.system": "Dermacentor variabilis", "unit.symbol": "%", "mortality at 10 µg/cm2, 10 µg/cm2": 58}
{"mol": "Cn1c(Cl)c(Cl)c(C#N)c1-c1ccc(OC(F)(F)F)cc1", "study.system": "Dermacentor variabilis", "unit.symbol": "%", "mortality at 10 µg/cm2, 10 µg/cm2": 55}
{"mol": "N#Cc1c(-c2ccc(Cl)c(Cl)c2)[nH]c(Cl)c1Cl", "study.system": "Dermacentor variabilis", "unit.symbol": "%", "mortality at 10 µg/cm2, 10 µg/cm2": 40}
{"mol": "CCOCn1c(-c2ccc(Cl)cc2)c(C#N)c(Br)c1C(F)(F)F", "study.system": "Dermacentor variabilis", "unit.symbol": "%", "mortality at 10 µg/cm2, 10 µg/cm2": 100}
{"mol": "CCOCn1c(Cl)c(Cl)c(C#N)c1-c1ccc(C(F)(F)F)cc1", "study.system": "Dermacentor variabilis", "unit.symbol": "%", "mortality at 10 µg/cm2, 10 µg/cm2": 97}

###

Each record here notes measured mortality at 4 µg/cm2, 4 µg/cm2.
test system: Psoroptes cuniculi; experiment: Filter paper contact test against Psoroptes cuniculi (Rabbit Ear Mite); assay type: in vivo; conditions: Psoroptes ovis; 4.0 μg/cm^2; 24 hour; read-out: 24 hour % Mortality
measured.attribute: mortality at 4 µg/cm2, 4 µg/cm2 (%)

{"mol": "N#Cc1[nH]c(-c2ccc(Cl)cc2)c(C#N)c1Br", "unit.symbol": "%", "observed": 48}
{"mol": "O=[N+]([O-])c1c(-c2ccc(Cl)cc2)[nH]c(Cl)c1Cl", "unit.symbol": "%", "observed": 52}
{"mol": "N#CCn1c(Cl)c(Cl)c(C#N)c1-c1ccc(C(F)(F)F)cc1", "unit.symbol": "%", "observed": 77}
{"mol": "CCOCn1c(Cl)c(Cl)c(C#N)c1-c1ccc(C(F)(F)F)cc1", "unit.symbol": "%", "observed": 92}
{"mol": "CCOCn1c(Cl)c(Cl)c(C#N)c1-c1ccc(OC(F)(F)F)cc1", "unit.symbol": "%", "observed": 100}
{"mol": "N#Cc1cc[nH]c1-c1cc(F)c(Cl)cc1Cl", "unit.symbol": "%", "observed": 73}
{"mol": "N#Cc1c(Br)[nH]c(-c2ccc(Cl)cc2)c1Br", "unit.symbol": "%", "observed": 11}
{"mol": "CCOCn1c(-c2ccc(Br)cc2)c(C#N)c(Br)c1C(F)(F)F", "unit.symbol": "%", "observed": 31}
{"mol": "CCOCn1c(C(F)(F)F)cc([N+](=O)[O-])c1-c1ccc(Cl)c(Cl)c1", "unit.symbol": "%", "observed": 92}
{"mol": "CCOCn1c(-c2ccc(Cl)cc2)c(C#N)c(Br)c1C(F)(F)F", "unit.symbol": "%", "observed": 76}
